- EXPERIMENT_SUMMARY: Stability of compound assessed as bovine trypsin-mediated compound hydrolysis at 10 uM incubated for 30 mins by RP-HPLC analysis
- Type: ADME, Bos taurus
- CONDITION_SET: cattle, read-out: Drug degradation
Non-standard residues stand in square brackets, D forms with d. Residues, ends and D or L forms follow the SMILES beside them. Orn = NCCC[C@H](N)C(=O)O; Dap = NC[C@H](N)C(=O)O
# metabolised at 0.5 h, 10 µM per entry
Your answer should be a plain number; it is taken to be in %.

Input line: If you can, please state the reported metabolised at 0.5 h, 10 µM value of CC[C@H](C)[C@H](NC(=O)[C@H](CCCN)NC(=O)[C@@H](NC(=O)[C@H](CCCN)NC(=O)[C@@H](NC(=O)[C@@H](NC(=O)[C@H](CC(C)C)NC(=O)[C@H](CCCN)NC(=O)[C@@H](N)C(C)C)[C@@H](C)CC)C(C)C)C(C)C)C(=O)N[C@@H](Cc1c[nH]c2ccccc12)C(=O)N[C@@H](CCCN)C(=O)N[C@@H](CCCN)C(N)=O (H-V[Orn]LIV[Orn]V[Orn]IW[Orn][Orn]-NH2) .
Output line: 60

Input line: Ok, now CC[C@H](C)[C@H](NC(=O)[C@H](CN)NC(=O)[C@@H](NC(=O)[C@H](C)NC(=O)[C@@H](NC(=O)[C@@H](NC(=O)[C@H](CC(C)C)NC(=O)[C@H](CN)NC(=O)[C@@H](N)C(C)C)[C@@H](C)CC)C(C)C)C(C)C)C(=O)N[C@@H](Cc1c[nH]c2ccccc12)C(=O)N[C@@H](CN)C(=O)N[C@@H](CN)C(N)=O (H-V[Dap]LIVAV[Dap]IW[Dap][Dap]-NH2)
Output line: 30

Input line: Follow-up item: CC[C@H](C)[C@H](NC(=O)[C@H](CN)NC(=O)[C@@H](NC(=O)[C@H](CN)NC(=O)[C@@H](NC(=O)[C@@H](NC(=O)[C@H](CC(C)C)NC(=O)[C@H](CN)NC(=O)[C@@H](N)C(C)C)[C@@H](C)CC)C(C)C)C(C)C)C(=O)N[C@@H](Cc1c[nH]c2ccccc12)C(=O)N[C@@H](CN)C(=O)N[C@@H](CN)C(N)=O (H-V[Dap]LIV[Dap]V[Dap]IW[Dap][Dap]-NH2)
Output line: 14

* * *

residual biofilm growth (% of control) values by entry
- Tested on: Staphylococcus aureus
- EXPERIMENT_SUMMARY: Antibiofilm activity against methicillin-resistant Staphylococcus aureus assessed as inhibition of biofilm formation by measuring residual biofilm growth incubated for overnight at 10-fold dilution by crystal violet staining based microtiter plate assay relative to control
- Type: functional
Non-standard residues stand in square brackets, D forms with d. Residues, ends and D or L forms follow the SMILES beside them. Agb = N=C(N)NCC[C@H](N)C(=O)O; Orn = NCCC[C@H](N)C(=O)O
Report only the number, with the unit % understood.

Input line: Report residual biofilm growth (% of control) for CC[C@H](C)[C@H](NC(=O)[C@H](CCCNC(=N)N)NC(=O)[C@@H](NC(=O)[C@H](C)NC(=O)[C@@H](NC(=O)[C@H](CCCN)NC(=O)[C@H](CC(C)C)NC(=O)[C@H](CCCNC(=N)N)NC(=O)[C@@H](N)C(C)C)C(C)C)C(C)C)C(=O)N[C@@H](Cc1c[nH]c2ccccc12)C(=O)N[C@@H](CCCNC(=N)N)C(=O)N[C@@H](CCCNC(=N)N)C(N)=O (H-VRL[Orn]VAVRIWRR-NH2) please.
Output line: 36.9

Kindly review the next compound as well.
Input line: // residual biofilm growth (% of control) lookup, key: CC[C@H](C)[C@H](NC(=O)[C@H](CC(C)C)NC(=O)[C@H](CCCNC(=N)N)NC(=O)[C@@H](N)C(C)C)C(=O)N[C@H](C(=O)N[C@@H](C)C(=O)N[C@H](C(=O)N[C@@H](CCCNC(=N)N)C(=O)N[C@@H](CCNC(=N)N)C(=O)N[C@@H](Cc1c[nH]c2ccccc12)C(=O)N[C@@H](CCCNC(=N)N)C(=O)N[C@@H](CCCNC(=N)N)C(N)=O)C(C)C)C(C)C (H-VRLIVAVR[Agb]WRR-NH2)
Output line: 103.6

src = ChEMBL document CHEMBL4376833
